System: 4 PI3K isoforms (Human recombinant GST-PI3K)
Assay: PI3K scintillation proximity assay, best IC50 obtained with the four isoforms (alpha, beta, delta, gamma)
Assay type: biochemical
Conditions: best IC50 obtained with the four isoforms of PI3K; read-out: Best potency measured on the 4 PI3K isoforms
Entries and their IC50 values follow.

{"columns": ["Compound", "IC50 (nM)"],
 "data": [
  ["O=C(c1nn(CC2CCCO2)c2c1CS(=O)(=O)c1ccccc1-2)N1CCOCC1 (centres unmarked) [Example 45]", 1560],
  ["CN1CCN(C(=O)c2cccc(-n3nc(C(=O)N4CCOCC4)c4c3-c3ccccc3S(=O)(=O)C4)c2)CC1 [Example 124]", 253],
  ["O=C(c1nn([C@@H]2CCCN(CCF)C2)c2c1CS(=O)(=O)c1ccccc1-2)N1CCOCC1 (single isomer, unassigned) [Example 366]", 7970],
  ["O=C(c1nn(C2CCC(F)(F)CC2)c2c1CS(=O)(=O)c1ccccc1-2)N1CCOCC1 [Example 170]", 386],
  ["O=C(c1nn(-c2ccc(Br)cc2)c2c1CS(=O)(=O)c1ccccc1-2)N1CCOCC1 [Example 27]", 1120],
  ["O=C(c1nn(C2CCCCC2)c2c1CS(=O)(=O)c1cc(Br)ccc1-2)N1CCOCC1 [Example 128]", 691],
  ["COCCNC(=O)c1cccc(-n2nc(C(=O)N3CCOCC3)c3c2-c2ccccc2S(=O)(=O)C3)c1 [Example 126]", 1110],
  ["Cc1nc(-c2cccc(-n3nc(C(=O)N4CCOCC4)c4c3-c3ccccc3S(=O)(=O)C4)c2)n[nH]1 [Example 200]", 4860],
  ["O=C(c1nn(C2CCOCC2)c2c1CS(=O)(=O)c1c(F)cccc1-2)N1CCOCC1 [Example 249]", 1030],
  ["CN1CCCC(N2CCC[C@H](n3nc(C(=O)N4CCOCC4)c4c3-c3ccccc3S(=O)(=O)C4)C2)C1 (stereo in doubt) [Example 459]", 18],
  ["O=C(c1nn([C@H]2CCCN(CCN3CCOCC3)C2)c2c1CS(=O)(=O)c1c(Cl)cccc1-2)N1CCOCC1 (single isomer, unassigned) [Example 386]", 30],
  ["O=C(c1nn([C@@H]2CCCN(CCC3CCOCC3)C2)c2c1CS(=O)(=O)c1ncccc1-2)N1CCOCC1 (single isomer, unassigned) [Example 423]", 99],
  ["CC(C)CCOC1CCN(Cc2ccc(-n3nc(C(=O)N4CCOCC4)c4c3-c3ccccc3S(=O)(=O)C4)cc2)C1 (centres unmarked) [Example 233]", 167],
  ["O=C(c1nn(C2CCNC2)c2c1CS(=O)(=O)c1ccccc1-2)N1CCOCC1 (centres unmarked) [Example 84]", 4640]
]}

* * *

Tested on: 4 PI3K isoforms (Human recombinant GST-PI3K)
Test: PI3K scintillation proximity assay, best IC50 obtained with the four isoforms (alpha, beta, delta, gamma)
Assay type: biochemical
Conditions: best IC50 obtained with the four isoforms of PI3K; read-out: Best potency measured on the 4 PI3K isoforms
Structures can show the parent of a compound that is named as a salt.
IC50 strictly under 0.3 µM means 1; at 0.3 µM or over means 0.

{"columns": ["Compound", "Qualitative Label"],
 "data": [
  ["COc1ccc2c(c1)S(=O)(=O)Cc1c(C(=O)N3CCOCC3)nn([C@H]3CCCN(CC4CCOC4)C3)c1-2 (stereo in doubt)", 1],
  ["O=C(CCN1CCC[C@H](n2nc(C(=O)N3CCOCC3)c3c2-c2ccccc2S(=O)(=O)C3)C1)N1CC(F)(F)C1 (stereo in doubt)", 1],
  ["CN1CCCC1CCn1nc(C(=O)N2CCOCC2)c2c1-c1ccccc1S(=O)(=O)C2 (stereo not shown)", 0],
  ["CC(C)c1ccc(-n2nc(C(=O)N3CCOCC3)c3c2-c2ccccc2S(=O)(=O)C3)cc1", 0],
  ["Nc1ccc2c(c1)S(=O)(=O)Cc1c(C(=O)N3CCOCC3)nn(-c3ccccc3)c1-2", 0],
  ["COCCCN1CCCC(n2nc(C(=O)N3CCOCC3)c3c2-c2ccccc2S(=O)(=O)C3)CC1 (stereo not shown)", 0],
  ["O=C(O)c1nn(-c2ccc(CN3CCOCC3)cc2)c2c1CS(=O)(=O)c1ccccc1-2", 0],
  ["O=C(c1cccc(-n2nc(C(=O)N3CCOCC3)c3c2-c2ccccc2S(=O)(=O)C3)c1)N1CCS(=O)(=O)CC1", 0],
  ["Nc1ccc2c(c1)-c1c(c(C(=O)N3CCOCC3)nn1-c1ccccc1)CS2(=O)=O", 0],
  ["Cn1nc(C(=O)N2CCOCC2)c2c1-c1cc(F)ccc1S(=O)(=O)C2", 0],
  ["CN1CCCC(n2nc(C(=O)N3CCOCC3)c3c2-c2ccccc2S(=O)(=O)C3)C1 (stereo not shown)", 0],
  ["COc1ccc2c(c1)S(=O)(=O)Cc1c(C(=O)N3CCOCC3)nn([C@H]3CCCN(C4CCCOC4)C3)c1-2 (stereo in doubt)", 1],
  ["COCCNc1ccc2c(c1)-c1c(c(C(=O)N3CCOCC3)nn1C1CCCCC1)CS2(=O)=O", 0],
  ["O=C(Nc1cccnc1)c1cccc(-n2nc(C(=O)N3CCOCC3)c3c2-c2ccccc2S(=O)(=O)C3)c1", 0],
  ["COC1CN(Cc2cccc(-n3nc(C(=O)N4CCOCC4)c4c3-c3ccccc3S(=O)(=O)C4)c2)C1", 1],
  ["Nc1ncc(-c2cccc(-n3nc(C(=O)N4CCOCC4)c4c3-c3ccccc3S(=O)(=O)C4)c2)cn1", 0],
  ["O=C(c1cccc(-n2nc(C(=O)N3CCOCC3)c3c2-c2ccccc2S(=O)(=O)C3)c1)N1CCCC(O)C1 (stereo not shown)", 0],
  ["O=C(c1nn(C2CCCN(CCN3CC[C@H](F)C3)C2)c2c1CS(=O)(=O)c1ccccc1-2)N1CCOCC1 (single isomer, unassigned)", 1],
  ["Cc1ccc(F)cc1-n1nc(C(=O)N2CCOCC2)c2c1-c1ccccc1S(=O)(=O)C2", 0],
  ["O=C(c1nn(-c2cccc(OCCn3cccn3)c2)c2c1CS(=O)(=O)c1ccccc1-2)N1CCOCC1", 0],
  ["O=C(c1nn(C2CCCN(CCN3CCOCC3)C2)c2c1CS(=O)(=O)c1c(Cl)cccc1-2)N1CCOCC1 (stereo not shown)", 1],
  ["CS(=O)(=O)Nc1ccc2c(c1)-c1c(c(C(=O)N3CCOCC3)nn1-c1ccccc1)CS2(=O)=O", 0],
  ["O=C(c1ccc2c(c1)-c1c(c(C(=O)N3CCOCC3)nn1-c1ccccc1)CS2(=O)=O)N1CCOCC1", 0],
  ["O=C(c1nn([C@H]2CCCN(CCN3CCOCC3)C2)c2c1CS(=O)(=O)c1c(F)cccc1-2)N1CCOCC1 (single isomer, unassigned) [Example 350, hydrochloride salt]", 1],
  ["O=C(c1nn([C@H]2CCCN(CCN3CCOCC3)C2)c2c1CS(=O)(=O)c1cc(F)ccc1-2)N1CCOCC1 (stereo in doubt)", 1],
  ["COC(=O)c1ccc(Cn2nc(C(=O)N3CCOCC3)c3c2-c2ccccc2S(=O)(=O)C3)o1", 0],
  ["O=C(c1nn([C@@H]2CCN(C3CCOCC3)C2)c2c1CS(=O)(=O)c1ccccc1-2)N1CCOCC1 (single isomer, unassigned)", 1],
  ["O=C(c1nn([C@H]2CCCN(CC3CCOCC3)C2)c2c1CS(=O)(=O)c1ncccc1-2)N1CCOCC1 (single isomer, unassigned)", 1]
]}
